Tested on: Cryptococcus neoformans
assay_explanation: Antifungal activity against Cryptococcus neoformans KCCM 50564 after 1 day
Type: functional
reported_conditions: KCCM 50564, 24 h
recorded_endpoint: MIC (µg/mL)

1) O=C(NN1C(=O)CSC1c1ccccc1)c1cc(-c2ccc(Cl)cc2)n[nH]1 (racemic) : 12.5
2) O=C(NN1C(=O)CSC1c1ccccc1O)c1cc(-c2ccc(Cl)cc2)n[nH]1 (racemic) : 6.3
3) O=C(N/N=C/c1ccccc1O)c1cc(-c2ccc(Cl)cc2)n[nH]1 : 25
4) Nc1nc(=O)[nH]cc1F : 6.3
5) O=C(N/N=C/c1cccc([N+](=O)[O-])c1)c1cc(-c2ccc(Cl)cc2)n[nH]1 : 1.6
6) O=C(N/N=C/c1ccccc1Cl)c1cc(-c2ccc(Cl)cc2)n[nH]1 : 3.2
7) O=C(NN1C(=O)[C@H](Cl)[C@H]1c1ccccc1)c1cc(-c2ccc(Cl)cc2)n[nH]1 (racemic) : 50
8) COc1ccc(C2SCC(=O)N2NC(=O)c2cc(-c3ccc(Cl)cc3)n[nH]2)cc1OC (racemic) : 50
9) O=C(NN1C(=O)[C@H](Cl)[C@H]1c1ccc(O)cc1)c1cc(-c2ccc(Cl)cc2)n[nH]1 (racemic) : 3.2
10) O=C(NN1C(=O)CSC1c1ccccc1[N+](=O)[O-])c1cc(-c2ccc(Cl)cc2)n[nH]1 (racemic) : 3.2
11) COc1ccc([C@@H]2[C@@H](Cl)C(=O)N2NC(=O)c2cc(-c3ccc(Cl)cc3)n[nH]2)cc1 (racemic) : 1.6
12) O=C(NN1C(=O)[C@H](Cl)[C@H]1c1ccccc1[N+](=O)[O-])c1cc(-c2ccc(Cl)cc2)n[nH]1 (racemic) : 50
13) O=C(N/N=C/c1ccc(Cl)cc1)c1cc(-c2ccc(Cl)cc2)n[nH]1 : 1.6
14) O=C(NN1C(=O)CSC1c1cccc([N+](=O)[O-])c1)c1cc(-c2ccc(Cl)cc2)n[nH]1 (racemic) : 100
15) O=C(N/N=C/c1ccccc1[N+](=O)[O-])c1cc(-c2ccc(Cl)cc2)n[nH]1 : 1.6
16) O=C(NN1C(=O)[C@H](Cl)[C@H]1c1ccccc1Cl)c1cc(-c2ccc(Cl)cc2)n[nH]1 (racemic) : 6.3
17) COc1ccc(C2SCC(=O)N2NC(=O)c2cc(-c3ccc(Cl)cc3)n[nH]2)cc1 (racemic) : 12.5
18) COc1cc([C@@H]2[C@@H](Cl)C(=O)N2NC(=O)c2cc(-c3ccc(Cl)cc3)n[nH]2)ccc1O (racemic) : 12.5

Reference source for all entries: ChEMBL document CHEMBL2057135
